Values from patent US20230109839A1

TEST_TARGET: human Nav1.1 (Homo sapiens)
Construct: host or cells: HEK293
METHOD_NOTES: Amplification of Nav1.1-derived voltage-gated sodium current (Nav1.1 current), automated patch clamp (Test 1)
Assay type: cell-based
CONDITION_DETAILS: Concentration for evaluation 50 μM; HEK293 cell line stably expressing human Nav1.1
Mark False for Nav1.1 current amplification rate (%) values under 40%, and True for everything at or above.

Some solved entries appear below for comparison.
1) N#Cc1ccc(-c2ncc3cnn(CC(=O)Nc4ccn5ncnc5c4)c3n2)s1	False
2) CC1CC=C(c2ccc(=O)n(CC(=O)N3CC=C(c4ccccn4)C3)n2)CC1 (centres unmarked)	True
3) CC1CC=C(c2ccc(=O)n(CC(=O)Nc3ccc4nncn4c3)n2)CC1 (centres unmarked)	True
4) CC1CC=C(c2ccc(=O)n(CC(=O)Nc3ccnc(C4=CCN(C)C4)c3)n2)CC1 (centres unmarked)	True
5) Cc1cc(-c2ncc3cnn(CC(=O)Nc4ccn5ncnc5c4)c3n2)oc1C	False

Could you verify whether the entry COC1CN(Cc2cncc(NC(=O)Cn3nc(C4=CCC(C)CC4)ccc3=O)c2)C1 (centres unmarked) shows Nav1.1 current amplification rate (%) of no less than 40%?
False

Could you verify whether the entry COc1cccc(F)c1-c1ncc2cnn(CC(=O)Nc3ccn4ncnc4c3)c2n1 shows Nav1.1 current amplification rate (%) of no less than 40%?
False

Could you verify whether the entry CC1CC=C(c2ccc(=O)n(CC(=O)N3CCN(c4ccn(C)n4)CC3)n2)CC1 (centres unmarked) shows Nav1.1 current amplification rate (%) of no less than 40%?
False

====

TEST_TARGET: human Nav1.1 (Homo sapiens)
Construct: host or cells: HEK293
METHOD_NOTES: Amplification of Nav1.1-derived voltage-gated sodium current (Nav1.1 current), automated patch clamp (Test 1)
Assay type: cell-based
CONDITION_DETAILS: HEK293, concentration for evaluation 1 μM; HEK293 stably expressing human Nav1.1; read-out: Nav1.1 current amplification rate (%)
MEASURED_PROPERTY: activation at 1 µM (%)
Give the quantity in %, number only.

Here are 3 compounds together with their reported answers.
1. CC1CC=C(c2ccc3cnn(CC(=O)N4CCc5c(N6CCOCC6)cccc54)c3n2)CC1 (centres unmarked) [Example 882]	88
2. CC1CCN(c2ncc3cnn(CC(=O)Nc4ccn5ccnc5c4)c3n2)CC1 [Example 831]	128
3. CC1CC=C(c2ccc3cnn(CC(=O)N4CCN(c5cccnc5)CC4)c3n2)CC1 (centres unmarked) [Example 881]	446

Entry CN(c1ncc2cnn(CC(=O)Nc3cnc4cccnc4c3)c2n1)C1CC(C)(C)C1 [Example 844] , activation at 1 µM reported as 221

Entry CN(c1ccc2cnn(CC(=O)Nc3cnc4cccnc4c3)c2n1)C1CC1 [Example 888] , activation at 1 µM reported as 101

Entry CC1CCN(c2ncc3cnn(CC(=O)Nc4ccc(C#N)cn4)c3n2)CC1(F)F (centres unmarked) [Example 850] , activation at 1 µM reported as 79

Entry Cc1cc(NC(=O)Cn2ncc3ccc(N(C)C4CC4)nc32)cc2ncnn12 [Example 886] , activation at 1 µM reported as 125

Entry CN(CC1CCC1)c1ncc2cnn(CC(=O)Nc3ccc(C#N)nc3)c2n1 [Example 840] , activation at 1 µM reported as 164

====

TEST_TARGET: human Nav1.1 (Homo sapiens, UniProt P35498)
Construct: host or cells: HEK293
METHOD_NOTES: Amplification of Nav1.1-derived voltage-gated sodium current (Nav1.1 current), automated patch clamp (Test 1)
Type: cell-based
CONDITION_DETAILS: Concentration for evaluation 3 μM; HEK293 cell line stably expressing human Nav1.1
Recorded Nav1.1 current amplification rate (%) split into classes lowest (below 50%), middle (50% to below 300%), highest (300% or more)

Some solved entries appear below for comparison.
1. CC1CC=C(c2ccc(=O)n(CC(=O)N3CCOc4c(-c5cn[nH]c5)cccc43)n2)CC1 (centres unmarked)	middle
2. CC1CC=C(c2ccc(=O)n(CC(=O)Nc3ccc4oc(C(C)(C)O)nc4c3)n2)CC1 (centres unmarked)	middle
3. CC1CC=C(c2ccc(=O)n(CC(=O)N3CCc4c(C5CN(C(=O)CO)C5)cccc43)n2)CC1 (centres unmarked)	highest
4. COC1CN(Cc2nc3cc(NC(=O)Cn4nc(C5=CCC(C)CC5)ccc4=O)ccc3o2)C1 (centres unmarked)	lowest
5. CC1CC=C(c2ccc(=O)n(CC(=O)N3CCN(c4cncc(OC(F)F)c4)CC3)n2)CC1 (centres unmarked)	middle

# ---- query molecule ----
Band assignment needed for CN(c1cnc2cnn(CC(=O)N3CC=C(c4cccnc4)CC3)c2n1)C1CC1 please.
lowest
